Molecular target: recombinant SARS-CoV-2 Main protease (Mpro) (Severe acute respiratory syndrome coronavirus 2 (2019-nCoV) (SARS-CoV-2), UniProt P0DTD1)
Test: Cov Mpro Biochemical IC50 Assay
Conditions: MPro IC50, recombinant SARS-CoV-2 Mpro, fluorogenic peptide substrate
quantity.measured: pIC50
// pIC50: -log10(molar conc.)

[[record]]
compound_string = "Cc1noc(C)c1-c1ccc2c(=O)n(-c3cncc4ccccc34)c(=O)[nH]c2c1"
val = 5.86

[[record]]
compound_string = "COc1ccc(Cl)c(-c2ccc3c(=O)n(-c4cncc5ccccc45)c(=S)[nH]c3c2)c1"
val = 5.78

[[record]]
compound_string = "O=c1c2ccc(-c3ccccc3Cl)cc2[nH]c(=S)n1-c1cncc2ccccc12"
val = 5.32

[[record]]
compound_string = "O=c1[nH]c2cc(-c3ccccc3Cl)ccc2c(=O)n1-c1cncc(C2CC2)c1"
val = 6.11

[[record]]
compound_string = "O=c1c2sc(-c3ccccc3Cl)cc2[nH]c(=S)n1-c1cncc2ccccc12"
val = 6.48


Next compound, please.
The recorded pIC50 for `O=c1[nH]c2cc(-c3ccccc3C3CC3)ccc2c(=O)n1-c1cncc2ccccc12` is 5.77
